These data points were gathered from patent US9394329B2.

Assay target: SGLT-2 (Homo sapiens, UniProt P31639)
Construct: expressed in transfected cells
Sequence (P31639 whole entry): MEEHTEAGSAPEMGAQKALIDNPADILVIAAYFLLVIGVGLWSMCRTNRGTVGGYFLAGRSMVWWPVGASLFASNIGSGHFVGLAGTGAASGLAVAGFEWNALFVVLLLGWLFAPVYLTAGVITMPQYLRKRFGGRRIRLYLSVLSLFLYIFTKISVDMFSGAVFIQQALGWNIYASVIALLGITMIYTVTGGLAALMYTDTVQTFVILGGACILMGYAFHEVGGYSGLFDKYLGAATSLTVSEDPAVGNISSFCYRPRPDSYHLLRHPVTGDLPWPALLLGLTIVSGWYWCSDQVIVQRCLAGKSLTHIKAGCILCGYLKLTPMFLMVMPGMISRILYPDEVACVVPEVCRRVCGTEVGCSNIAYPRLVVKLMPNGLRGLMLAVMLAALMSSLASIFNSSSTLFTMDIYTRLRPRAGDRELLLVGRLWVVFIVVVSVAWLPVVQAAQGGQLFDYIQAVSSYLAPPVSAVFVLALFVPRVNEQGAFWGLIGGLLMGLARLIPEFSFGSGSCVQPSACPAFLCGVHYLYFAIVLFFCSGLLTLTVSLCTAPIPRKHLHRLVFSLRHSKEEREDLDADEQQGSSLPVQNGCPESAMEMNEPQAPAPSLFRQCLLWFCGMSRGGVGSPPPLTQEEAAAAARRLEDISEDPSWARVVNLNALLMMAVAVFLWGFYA
Test: SGLT-2 activity measurement ([14C]-AMG uptake in CHO cells expressing human SGLT2)
Format: cell-based
Condition info: CHO cells expressing human SGLT2, 0.5 μm [14C]-AMG, 37° C. for 1 hour
Measured property: IC50 (nM)
Answers are plain numbers, in nM.

Worked cases, answers included:
For CCOc1ccc(Cc2cc([C@]34OC[C@](C5CNC(=O)O5)(O3)[C@@H](O)[C@H](O)[C@H]4O)ccc2Cl)cc1 (stereo partly drawn) [Example 27] , write its IC50.
13.8

For CCOc1ccc(Cc2cc([C@]34OC[C@](C(O)CO)(O3)[C@@H](O)[C@H](O)[C@H]4O)ccc2Cl)cc1 (stereo partly drawn) [Example 7] , write its IC50.
4.96

Now for another entry.
For CC(O)[C@@]12CO[C@@](c3ccc(Cl)c(Cc4ccc(OC(F)(F)F)cc4)c3)(O1)[C@H](O)[C@@H](O)[C@@H]2O (stereo partly drawn) [Example 15] , write its IC50.
1.96
